These data points were gathered from ChEMBL document CHEMBL1158140.

tested on: HBL-100; assay: Cytotoxicity against human HBL100 cells after 48 hrs by SRB assay; format: functional; conditions: HBL-100, 48 h
# reported GI50; entries follow
Report only the number, with the unit µM understood.

[[record]]
compound = "CC(C)c1cc2c(c(O)c1O)[C@@]13CCCC(C)(C)[C@@H]1C[C@@H]2OC3"
observed_value = 4.6


# GI50 of "CC(C)c1cc(C=O)c2c(c1O)OC(=O)[C@@]21CCCC(C)(C)[C@@H]1C=O" = 26

# GI50 of CC(CO)c1cc2c(c(O)c1O)[C@@]13CCCC(C)(C)[C@@H]1C[C@@H]2OC3=O (stereo partly drawn) = 3.6

# GI50 of "CC(C)C1=C[C@@]23CC[C@H]4C(C)(C)CCC[C@]4(CO2)C3=C(O)C1=O" = 22

# GI50 of "CC(C)c1cc2c(c(O)c1O)[C@@]13CCCC(C)(C)[C@@H]1C[C@@H]2OC3=O" = 3.9

# GI50 of "CC(C)c1cc2c(c(O)c1O)[C@@]13CCCC(C)(C)[C@@H]1[C@@H](O)[C@@H]2OC3=O" = 17

# GI50 of "CC(C)C1=C[C@]2(O)CC[C@H]3C(C)(C)CCC[C@]3(C)C2=CC1=O" = 26

# GI50 of "COc1cc2c(cc1C(C)C)C(=O)C=C1C(C)(C)CCC[C@@]12C" = 16
